# assay_summary: physchem
# reported_conditions: octan-1-ol/water, pH 7.4, LogD7.4
assay_readout: logD
# print the numeric value only

Below, each entry is followed by its recorded logD result.
* C=CCc1cc(NC(C)=O)ccc1OCCCNC(C)C | -0.01
* Cc1c(Cl)ccc(OC2CCN(C[C@H](O)CNC(=O)c3c[nH]nc3C(F)(F)F)CC2)c1Cl | 3.66
* Cc1ccc(NC(=O)CCC2CCCCC2)cc1NC(=O)c1ccc(O)cc1 | 4.13
* C[C@H](CO)Nc1nc(SCc2cccc(F)c2F)nc2[nH]c(=O)c(C#N)cc12 | 3.32
* CN(C)CCCNC(=O)c1nc(Cl)c(N)nc1N | -1
* O=S(=O)(Cc1cc(Cl)cc(Cl)c1)NCC(c1ccccc1)N1CCCCCC1 (stereo not given) | 3.23

Could you now consider this next compound?
[Q] Item CCc1ccccc1-c1ccc(-c2nc3ccncc3c(O)c2C#N)cc1 : provide logD
[A] 3.5

Numbers sourced from ChEMBL document CHEMBL3301361.
